FYI, the data here is from patent US20040024024A1.

system-under-test: Human recombinant MMP-9 (Homo sapiens)
Construct: made in house; host or cells: MMP-9-transfected HT1080 cells (spent media)
test-method-notes: In vitro MMP inhibition, IC50 determination (fluorogenic substrate I)
Format: biochemical
measurement-conditions: value outside parenthesis
measurement-name: pIC50
pIC50 field: float, defined as -log10 of concentration (mol/L).

{"line-notation": "O=C(NO)C1(S(=O)(=O)c2ccc(OCCCc3cccc(-c4ccccc4)c3)cc2)CCOCC1", "system-under-test": "Human recombinant MMP-9 (Homo sapiens)", "pIC50": 5.56}

Requested field: pIC50. Item: Cc1ccccc1N1CC(=O)N(CCCOc2ccc(S(=O)(=O)C3(C(=O)NO)CCOCC3)cc2)C1=O
5.67

pIC50 for CC(C)c1cccc(NC(=O)CCCOc2ccc(S(=O)(=O)C3(C(=O)NO)CCOCC3)cc2)c1 ?
7.21

Query (compound): O=C(NO)C1(S(=O)(=O)c2ccc(OCCCc3nnc(-c4ccc(Cl)cc4)o3)cc2)CCOCC1 ; field requested: pIC50
6.41

----------
# pIC50 values compiled below
system-under-test: Human recombinant MMP-14 (Homo sapiens, UniProt P50281)
Construct: The catalytic domain enzyme was expressed in E. coli inclusion bodies, solubilized in urea; made in house
test-method-notes: In vitro MMP inhibition, IC50 determination (fluorogenic substrate I)
Format: biochemical
measurement-conditions: value outside parentheses (Ki in parenthesis)
Just so you know, pIC50 here is -log10 of the concentration in molar units; reply with that number alone.

Guide cases for pIC50, answers given:
{"compound": "COc1ccc(OCCCOc2ccc(S(=O)(=O)C3(C(=O)NO)CCOCC3)cc2)cc1 [Example 447]", "pIC50": 5.87}
{"compound": "CC(C)(COc1ccc(S(=O)(=O)C2(C(=O)NO)CCOCC2)cc1)CS(=O)(=O)Cc1cccc(OC(F)(F)F)c1 [Example 440]", "pIC50": 5.60}
{"compound": "COc1ccc(CCCOc2ccc(S(=O)(=O)C3(C(=O)NO)CCOCC3)cc2)cc1 [Example 465]", "pIC50": 5.74}

Give pIC50 (Human recombinant MMP-14 (Homo sapiens, UniProt P50281)) of the following compound: CN(C)c1ccc(C(=O)CCCOc2ccc(S(=O)(=O)C3(C(=O)NO)CCOCC3)cc2)cc1 [Example 490]
5.25

Form: Entry = O=C(NO)C1(S(=O)(=O)c2ccc(OCCCOc3ccc(C(F)(F)F)cc3)cc2)CCN(C2CC2)CC1 [Example 319] | System = Human recombinant MMP-14 (Homo sapiens, UniProt P50281) | pIC50 = ____
5.37

----------
Entries and their Ki
system-under-test: Human recombinant MMP-9 (Homo sapiens, UniProt P14780)
Construct: made in house; host or cells: MMP-9-transfected HT1080 cells (spent media)
Sequence (P14780 107-707 limits assumed): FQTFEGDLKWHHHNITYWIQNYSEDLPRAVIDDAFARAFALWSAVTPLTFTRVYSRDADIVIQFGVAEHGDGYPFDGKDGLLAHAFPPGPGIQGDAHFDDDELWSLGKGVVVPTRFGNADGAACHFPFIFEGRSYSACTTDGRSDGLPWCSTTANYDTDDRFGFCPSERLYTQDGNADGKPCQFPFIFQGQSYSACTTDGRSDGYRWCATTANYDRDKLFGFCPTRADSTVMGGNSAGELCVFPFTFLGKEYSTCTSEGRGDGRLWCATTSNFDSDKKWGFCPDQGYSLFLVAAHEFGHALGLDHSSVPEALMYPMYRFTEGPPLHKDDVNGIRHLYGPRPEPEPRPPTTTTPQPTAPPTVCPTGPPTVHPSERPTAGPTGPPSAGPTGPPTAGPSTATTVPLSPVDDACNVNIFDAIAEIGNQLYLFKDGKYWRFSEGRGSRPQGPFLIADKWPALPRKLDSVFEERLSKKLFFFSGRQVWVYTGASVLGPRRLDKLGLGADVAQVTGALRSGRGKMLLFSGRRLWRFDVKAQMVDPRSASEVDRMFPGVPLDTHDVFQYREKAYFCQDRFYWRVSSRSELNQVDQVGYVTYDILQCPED
test-method-notes: In vitro MMP inhibition, Ki determination (fluorogenic substrate II)
Format: biochemical
measurement-conditions: value in parentheses
State just the number; it will be interpreted in nM.

// below: answered compounds
{"line-notation": "COCCN1CCC(C(=O)NO)(S(=O)(=O)c2ccc(OCCCc3cccc(-c4ccccc4F)c3)cc2)CC1", "Ki [nM]": 25.7}
{"line-notation": "O=C(COc1ccc(S(=O)(=O)C2(C(=O)NO)CCOCC2)cc1)c1cccc(-c2ccccc2)c1", "Ki [nM]": 132}
{"line-notation": "O=C(NO)C1(S(=O)(=O)c2ccc(OCCCc3cccc(-c4cccc(O)c4)c3)cc2)CCOCC1", "Ki [nM]": 220}

Query (compound): O=C(NO)C1(S(=O)(=O)c2ccc(OCCc3ccc(-c4ccc(O)cc4)cc3)cc2)CCOCC1 ; field requested: Ki
774
